IC50 values, listed per item
target.desc: EZH2 (Homo sapiens (Human))
Sequence (Q15910 other isoform, or with tags, fused parts or gaps): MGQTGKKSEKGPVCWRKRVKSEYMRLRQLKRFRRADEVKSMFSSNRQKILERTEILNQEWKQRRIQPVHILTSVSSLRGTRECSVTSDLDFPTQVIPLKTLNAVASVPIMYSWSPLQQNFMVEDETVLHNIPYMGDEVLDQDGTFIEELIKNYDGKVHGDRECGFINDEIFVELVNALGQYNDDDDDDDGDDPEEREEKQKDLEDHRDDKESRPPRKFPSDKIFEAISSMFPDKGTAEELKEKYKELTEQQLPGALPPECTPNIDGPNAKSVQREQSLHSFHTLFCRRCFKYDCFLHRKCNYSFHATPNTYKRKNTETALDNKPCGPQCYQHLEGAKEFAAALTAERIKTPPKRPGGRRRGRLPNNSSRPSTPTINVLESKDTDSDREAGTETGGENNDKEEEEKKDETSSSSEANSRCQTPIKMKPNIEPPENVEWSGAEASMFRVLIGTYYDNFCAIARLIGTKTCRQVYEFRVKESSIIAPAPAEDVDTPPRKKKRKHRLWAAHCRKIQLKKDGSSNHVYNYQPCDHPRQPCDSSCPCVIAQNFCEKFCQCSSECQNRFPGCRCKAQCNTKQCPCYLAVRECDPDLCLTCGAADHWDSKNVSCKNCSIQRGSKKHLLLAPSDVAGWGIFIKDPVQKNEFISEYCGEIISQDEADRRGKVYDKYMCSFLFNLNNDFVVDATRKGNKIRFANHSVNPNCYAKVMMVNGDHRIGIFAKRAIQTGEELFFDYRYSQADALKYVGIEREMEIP
Sequence (O75530 whole entry partner): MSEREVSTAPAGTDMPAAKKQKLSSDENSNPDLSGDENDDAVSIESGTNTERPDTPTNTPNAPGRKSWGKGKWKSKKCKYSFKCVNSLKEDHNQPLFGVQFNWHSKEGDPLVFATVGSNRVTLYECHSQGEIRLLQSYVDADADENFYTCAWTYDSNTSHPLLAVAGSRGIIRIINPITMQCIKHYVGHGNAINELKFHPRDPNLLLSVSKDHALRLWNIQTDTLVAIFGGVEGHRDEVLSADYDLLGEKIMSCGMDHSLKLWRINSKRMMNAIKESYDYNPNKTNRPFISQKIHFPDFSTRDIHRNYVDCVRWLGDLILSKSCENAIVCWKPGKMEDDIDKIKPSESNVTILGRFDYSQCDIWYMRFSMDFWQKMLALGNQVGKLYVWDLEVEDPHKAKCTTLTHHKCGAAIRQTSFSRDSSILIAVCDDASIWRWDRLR
Sequence (Q15022 whole entry partner): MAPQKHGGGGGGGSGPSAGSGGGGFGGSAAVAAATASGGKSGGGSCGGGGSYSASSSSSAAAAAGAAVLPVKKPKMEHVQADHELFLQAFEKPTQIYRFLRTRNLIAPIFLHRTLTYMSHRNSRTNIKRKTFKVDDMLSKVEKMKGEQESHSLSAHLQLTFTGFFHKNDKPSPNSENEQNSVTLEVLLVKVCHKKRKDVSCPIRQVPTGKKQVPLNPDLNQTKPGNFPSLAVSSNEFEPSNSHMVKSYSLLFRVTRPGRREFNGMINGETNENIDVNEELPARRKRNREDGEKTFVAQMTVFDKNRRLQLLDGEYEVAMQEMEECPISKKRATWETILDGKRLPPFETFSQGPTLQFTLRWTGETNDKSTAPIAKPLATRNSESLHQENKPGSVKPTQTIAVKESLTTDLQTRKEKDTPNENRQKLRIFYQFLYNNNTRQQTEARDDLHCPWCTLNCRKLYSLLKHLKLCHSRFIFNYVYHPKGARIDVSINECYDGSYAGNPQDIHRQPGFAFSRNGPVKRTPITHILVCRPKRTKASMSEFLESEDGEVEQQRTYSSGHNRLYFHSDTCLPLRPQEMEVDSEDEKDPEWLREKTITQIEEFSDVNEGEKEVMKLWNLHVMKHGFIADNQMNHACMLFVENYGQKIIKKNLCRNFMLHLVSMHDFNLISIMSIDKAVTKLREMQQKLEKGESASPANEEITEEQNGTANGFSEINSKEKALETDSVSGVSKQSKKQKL
Sequence (Q09028 whole entry partner): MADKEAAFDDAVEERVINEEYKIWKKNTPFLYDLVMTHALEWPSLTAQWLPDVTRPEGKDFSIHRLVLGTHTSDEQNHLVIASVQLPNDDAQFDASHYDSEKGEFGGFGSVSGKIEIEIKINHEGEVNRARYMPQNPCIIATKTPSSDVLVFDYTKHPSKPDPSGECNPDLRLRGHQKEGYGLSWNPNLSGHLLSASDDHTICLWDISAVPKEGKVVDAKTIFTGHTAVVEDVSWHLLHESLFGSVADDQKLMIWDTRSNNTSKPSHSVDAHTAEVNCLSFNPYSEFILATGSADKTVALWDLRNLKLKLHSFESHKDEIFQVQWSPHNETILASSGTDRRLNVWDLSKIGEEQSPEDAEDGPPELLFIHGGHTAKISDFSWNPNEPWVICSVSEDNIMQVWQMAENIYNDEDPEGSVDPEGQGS
procedure.details: PRC2 enzyme assay on peptide substrates
Assay type: biochemical
measurement.context: PRC2 enzyme assays on peptide substrates; 4 nM enzyme, 30 min preincubation at 25° C.; read-out: EZH2 IC50

>  <structure.smiles.string>
Cc1cc(C)c(CNC(=O)c2cc(C3=CCN(C4CCN(S(C)(=O)=O)CC4)CC3)nc3c2cnn3C(C)C)c(=O)[nH]1

>  <IC50>
300 to 1000 nM

$$$$
>  <structure.smiles.string>
Cc1cc(C)c(CNC(=O)c2cc(Cl)cc3c2cnn3C2CCCC2)c(=O)[nH]1

>  <IC50>
< 300 nM

$$$$
>  <structure.smiles.string>
CNCCN1CCC(c2cc(C(=O)NCc3c(C)cc(C)[nH]c3=O)c3cnn(C4CCCC4)c3c2)CC1

>  <IC50>
< 300 nM

$$$$
>  <structure.smiles.string>
Cc1cc(CN(C)CCN)c(CNC(=O)c2cccc3c2cnn3C2CCCC2)c(=O)[nH]1

>  <IC50>
1000 to 3000 nM

$$$$
>  <structure.smiles.string>
Cc1cc(C)c(CNC(=O)c2cc(-c3cccc(CNCCO)c3)cc3c2cnn3C2CCCC2)c(=O)[nH]1

>  <IC50>
< 300 nM

$$$$
>  <structure.smiles.string>
Cc1cc(C)c(CNC(=O)c2cc(N3CCC(N4CCNCC4)CC3)nc3c2cnn3C(C)C)c(=O)[nH]1

>  <IC50>
300 to 1000 nM

$$$$
>  <structure.smiles.string>
Cc1cc(C)c(CNC(=O)c2cc(-c3ccc(CN4CCNC(=O)C4)cc3)cc3c2cnn3C2CCCC2)c(=O)[nH]1

>  <IC50>
< 300 nM

$$$$
>  <structure.smiles.string>
Cc1cc(C)c(CNC(=O)c2cc(C3=CCN(C(=O)C4CNC4)CC3)nc3c2cnn3C(C)C)c(=O)[nH]1

>  <IC50>
< 300 nM

$$$$
>  <structure.smiles.string>
COCCOCc1cc(C(=O)NCc2c(C)cc(C)[nH]c2=O)c2cnn(C3CCCC3)c2c1

>  <IC50>
1000 to 3000 nM

$$$$
>  <structure.smiles.string>
CNCc1cc(C)[nH]c(=O)c1CNC(=O)c1cccc2c1cnn2C1CCCC1

>  <IC50>
3000 to 10000 nM

$$$$
>  <structure.smiles.string>
Cc1[nH]c(=O)c(CNC(=O)c2cc(C3=CC(C)(C)NC(C)(C)C3)nc3c2cnn3C(C)C)c(C)c1C

>  <IC50>
3000 to 10000 nM

$$$$
>  <structure.smiles.string>
CCOc1cc(C(=O)NCc2c(C)cc(C)[nH]c2=O)c2cnn(C(C)C)c2n1

>  <IC50>
1000 to 3000 nM

$$$$
>  <structure.smiles.string>
Cc1cc(C)c(CNC(=O)c2cc(-c3ccnc(N4CCN(C(=O)OC(C)(C)C)CC4)c3)nc3c2cnn3C(C)C)c(=O)[nH]1

>  <IC50>
300 to 1000 nM

$$$$
>  <structure.smiles.string>
Cc1cc(C)c(CNC(=O)c2cc(-c3ccc(CN(C)CCCN(C)C)cc3)cc3c2cnn3C2CCCC2)c(=O)[nH]1

>  <IC50>
< 300 nM

$$$$
>  <structure.smiles.string>
Cc1cc(CN2CCCC2)c(CNC(=O)c2cccc3c2cnn3C2CCCC2)c(=O)[nH]1

>  <IC50>
3000 to 10000 nM

$$$$
